Cited source for all entries: patent US20200148755A1

measurement.target: biotinylated human ApoC3 (human) (UniProt P02656)
protocol.notes: SPR, biotinylated human ApoC3 on streptavidin chip, scFv-Fc injected, pH 5.5
Some binders, each annotated with its measured koff.
Dear colleague, please return just the value in s⁻¹, with no unit written.

Example binders with recorded koff:
1. 5E5VHWT_VL8 scFv-Fc antibody (scFv, part only; not given: Linker, domain order, Fc, V domains shown, not shown: another chain or arm of the molecule; a dimerising Fc or GST; small tags and cut ends) VH: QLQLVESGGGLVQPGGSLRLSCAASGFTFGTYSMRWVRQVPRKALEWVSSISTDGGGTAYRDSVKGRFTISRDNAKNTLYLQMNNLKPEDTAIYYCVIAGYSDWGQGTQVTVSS VL: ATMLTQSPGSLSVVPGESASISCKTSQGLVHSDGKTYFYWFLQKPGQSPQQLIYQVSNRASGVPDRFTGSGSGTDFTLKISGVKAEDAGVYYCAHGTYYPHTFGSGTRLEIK = 0.00116
2. 5E5VH12_VLWT scFv-Fc antibody (scFv, part only; not given: Linker, domain order, Fc, V domains shown, not shown: another chain or arm of the molecule; a dimerising Fc or GST; small tags and cut ends) VH: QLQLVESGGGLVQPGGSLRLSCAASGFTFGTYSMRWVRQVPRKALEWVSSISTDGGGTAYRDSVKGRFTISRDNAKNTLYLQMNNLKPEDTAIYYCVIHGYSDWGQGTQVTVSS VL: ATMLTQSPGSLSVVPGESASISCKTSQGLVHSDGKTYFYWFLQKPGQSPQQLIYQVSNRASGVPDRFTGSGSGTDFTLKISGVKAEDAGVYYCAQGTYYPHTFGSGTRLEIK = 0.00206
3. 5E5WT scFv-Fc antibody (scFv, part only; not given: Linker, domain order, Fc, V domains shown, not shown: another chain or arm of the molecule; a dimerising Fc or GST; small tags and cut ends) VH: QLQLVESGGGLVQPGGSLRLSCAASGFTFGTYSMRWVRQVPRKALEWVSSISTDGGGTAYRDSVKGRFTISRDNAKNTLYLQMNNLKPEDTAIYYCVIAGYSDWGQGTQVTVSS VL: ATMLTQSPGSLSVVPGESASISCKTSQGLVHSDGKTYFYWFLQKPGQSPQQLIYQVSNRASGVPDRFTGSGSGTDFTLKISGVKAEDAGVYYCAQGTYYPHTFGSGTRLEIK = 2.53e-05

Here is another binder to look at.
-- ask Tell us which koff value is on record for 5E5VH5_VLWT scFv-Fc antibody (scFv, part only; not given: Linker, domain order, Fc, V domains shown, not shown: another chain or arm of the molecule; a dimerising Fc or GST; small tags and cut ends) VH: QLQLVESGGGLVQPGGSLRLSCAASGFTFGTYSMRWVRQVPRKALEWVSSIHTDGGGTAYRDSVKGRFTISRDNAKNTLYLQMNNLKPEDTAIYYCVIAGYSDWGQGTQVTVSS VL: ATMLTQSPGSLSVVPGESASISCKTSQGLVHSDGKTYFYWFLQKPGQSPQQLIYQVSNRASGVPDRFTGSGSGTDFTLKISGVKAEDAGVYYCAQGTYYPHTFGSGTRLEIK
-- reply 0.0016
